Test: Ex-vivo mouse plasma stability study of ^177Lu-labeled compounds
Type: in vitro ADME
Conditions: 37° C., 72 h
PROPERTY MEASURED: % Remaining 72 h (%)

- COMPOUND: "O=C(O)CC[C@H](NC(=O)N[C@@H](CCCCNC(=O)[C@H](Cc1ccc2ccccc2c1)NC(=O)C1CCC(CNC(=O)CN2CCN(CC(=O)O)CCN(CC(=O)O)CCN(CC(=O)O)CC2)CC1)C(=O)O)C(=O)O (stereo partly shown) [Example C-1, reference compound]"
  RESULT NUMBER: 100
- COMPOUND: "O=C(O)CC[C@H](NC(=O)N[C@@H](CCCCNC(=O)[C@H](Cc1ccc2ccccc2c1)NC(=O)[C@H]1CC[C@H](CNC(=O)[C@H](CCCCNC(=O)CN2CCN(CC(=O)O)CCN(CC(=O)O)CCN(CC(=O)O)CC2)NC(=O)CCCOC(=O)CNC(=O)[C@H](CCC(=O)O)NC(=O)CCCc2ccc(I)cc2)CC1)C(=O)O)C(=O)O"
  RESULT NUMBER: 57.3
- COMPOUND: "O=C(O)CC[C@H](NC(=O)N[C@@H](CCCCNC(=O)[C@H](Cc1ccc2ccccc2c1)NC(=O)[C@H]1CC[C@H](CNC(=O)[C@H](CCCCNC(=O)CCCOC(=O)CNC(=O)CN2CCN(CC(=O)O)CCN(CC(=O)O)CCN(CC(=O)O)CC2)NC(=O)[C@H](CCC(=O)O)NC(=O)CCCc2ccc(I)cc2)CC1)C(=O)O)C(=O)O [Example I-3, 4pIBA-Glu-Lys(-ESL1-DOTA)-Trx-2NaI-eKuE]"
  RESULT NUMBER: 3.99
- COMPOUND: "O=C(O)CCCCCCCCCCCCCCCCC(=O)N[C@@H](CCC(=O)NCCOCCOCC(=O)NCCOCCOCC(=O)N[C@@H](CCCCNC(=O)CCCOC(=O)CNC(=O)CNC(=O)CNC(=O)CNC(=O)CN1CCN(CC(=O)O)CCN(CC(=O)O)CCN(CC(=O)O)CC1)C(=O)NCCOCCOCC(=O)NC[C@H]1CC[C@H](C(=O)N[C@@H](Cc2ccc3ccccc3c2)C(=O)NCCCC[C@H](NC(=O)N[C@@H](CCC(=O)O)C(=O)O)C(=O)O)CC1)C(=O)O"
  RESULT NUMBER: 55.9
